Data provenance: PubChem BioAssay (Tox21)

Some compounds, each annotated with its measured max activation.
# study.system: Nuclear receptor subfamily 1 group I member 2 (Rattus norvegicus)
# assay.name: Rat pregnane X receptor (rPXR) activation by small molecules, qHTS assay (AID 1346983); note: % is set by controls: 0 for no effect and ±100 for the full control effect; nearly all actives have a fitted effect of over 20% in size
# applied.conditions: rPXR luciferase reporter cells, One-Glo luminescence, 24 h; hits give high values
# Text: National Center for Advancing Translational Sciences [NCATS] NIH Chemical Genomics Center [NCGC] U.S. Environmental Protection Agency [EPA] National Institutes of Environmental Health Sciences [NIEHS] National Toxicology Program [NTP] Assay overview: The Pregnane X receptor (PXR), a ligand activated nuclear receptor plays a critical role in the regulation of genes involved in drug metabolism and transporters. […]
Inconclusive results are not listed.
// return numeric value only (unit: %, not printed)

Worked cases, answers included:
| compound | readout.value |
| --- | --- |
| O=C(O)Cc1nn(Cc2ccc(Br)cc2F)c(=O)c2ccccc12 | 0.657 |
| CCOc1ccc(NC(=S)Nc2ccc(OCC)cc2)cc1 | -1.61 |
| C=CCN1C(=O)C(CC(C)C)NC1=S (centres undefined) | 12.3 |
| C[C@H](O)CN(C)C | -2.23 |
| NCC[C@H](O)C(=O)N[C@@H]1C[C@H](N)[C@@H](O[C@H]2O[C@H](CN)CC[C@H]2N)[C@H](O)[C@H]1O[C@H]1O[C@H](CO)[C@@H](O)[C@H](N)[C@H]1O | -1.85 |
| O=C(O)CCCC/C=C(\c1ccccc1)c1cccnc1 | -2.2 |

[in] max activation for CCOC(=O)Cc1ccc(-c2ccccc2)cc1 ?
[out] -3.15

[in] max activation for O=C(O)c1ccccn1 ?
[out] -2.98
